This collection of values is drawn from patent US10870647B2.

# Tested on: A375
# Protocol details: Cancer cell proliferation inhibition, CCK-8, 72 hours
# Assay type: cell-based
# Condition context: Homo sapiens, A-375, 72 h
Measured metric: log10 of IC50 (log10 of the value in nM)
Could you please treat all values as log10 of IC50 in nM?

>  <Compound>
Cc1cc(Nc2cccn3c(C#Cc4cc(C(=O)Nc5ccc(CN6CCN(C)CC6)c(C(F)(F)F)c5)ccc4C)cnc23)no1

>  <System>
A375

>  <log10 of IC50>
2.19

$$$$

query: Requested field: log10 of IC50. Item: Cc1ccc(C(=O)Nc2ccc(CN3CCC(N(C)C)C3)c(C(F)(F)F)c2)cc1C#Cc1cnc2c(Nc3cnn(C)c3)cccn12 (stereo not shown)
result: 2.61

query: I'd like to know its log10 of IC50. The compound in question is CCn1cc(Nc2cccn3c(C#Cc4cc(C(=O)Nc5ccc(CN6CC[C@@H](N(C)C)C6)c(C(F)(F)F)c5)ccc4C)cnc23)cn1
result: 2.45

query: Bench note: what log10 of IC50 did Cc1ccc(C(=O)Nc2ccc(CN3CCN(C)CC3)c(C(F)(F)F)c2)cc1C#Cc1cnc2c(Nc3ccc(C(F)(F)F)cc3)cccn12 show?
result: 3.61

query: Would you kindly share the measured log10 of IC50 for CCn1cc(Nc2cccn3c(C#Cc4cc(C(=O)Nc5ccc(CN6CCN(C)CC6)c(C(F)(F)F)c5)ccc4C)cnc23)cn1 ?
result: 2.15

query: Please give the measured log10 of IC50 for this compound: Cc1ccc(C(=O)Nc2ccc(CN3CCN(C)[C@@H](C)C3)c(C(F)(F)F)c2)cc1C#Cc1cnc2c(Nc3cnn(C)c3)cccn12
result: 2.18

query: Using the record for Cc1cc(Nc2cccn3c(C#Cc4cc(C(=O)Nc5ccc(CN6CCC(N(C)C)C6)c(C(F)(F)F)c5)ccc4C)cnc23)no1 (stereo not shown) , report its log10 of IC50.
result: 2.86

query: Consider the compound Cc1ccc(C(=O)Nc2ccc(CN3CC[C@H](N(C)C)C3)c(C(F)(F)F)c2)cc1C#Cc1cnc2c(Nc3cnn(C)c3)cccn12 and give its measured log10 of IC50.
result: 2.40

query: # input compound: Cc1ccc(NC(=O)Nc2cccc(C(F)(F)F)c2)cc1C#Cc1cnc2c(Nc3cnn(C(C)C)c3)cccn12 ; wanted: its log10 of IC50
result: 3.71

query: Need log10 of IC50 of Cc1ccc(C(=O)Nc2cccc(C(F)(F)F)c2)cc1C#Cc1cnc2c(Nc3cnn(C)c3)cccn12 , thanks.
result: 3.18

query: I would be grateful if you could share the reported log10 of IC50 for Cc1ccc(NC(=O)c2ccc(CN3CCN(C)CC3)c(C(F)(F)F)c2)cc1C#Cc1cnc2c(Nc3cnn(C(C)C)c3)cccn12 .
result: 2.61
